Target: Melatonin receptor type 1B (Homo sapiens)
Sequence (P49286 whole entry): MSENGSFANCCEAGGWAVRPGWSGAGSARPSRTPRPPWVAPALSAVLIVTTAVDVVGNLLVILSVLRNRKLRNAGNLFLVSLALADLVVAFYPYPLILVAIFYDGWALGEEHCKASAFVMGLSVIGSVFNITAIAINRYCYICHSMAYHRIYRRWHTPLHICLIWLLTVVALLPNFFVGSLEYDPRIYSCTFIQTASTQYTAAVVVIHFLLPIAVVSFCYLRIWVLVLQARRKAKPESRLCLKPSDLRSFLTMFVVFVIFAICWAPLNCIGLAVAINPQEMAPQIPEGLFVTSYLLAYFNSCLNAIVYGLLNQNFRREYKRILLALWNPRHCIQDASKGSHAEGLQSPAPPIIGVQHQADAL
endpoint name: Ki (nM)

1 = COc1cccc(Oc2ccc(NC(=O)CC(C)C)cc2)c1
2 = CCCC(=O)Nc1ccc(Sc2cccc(OC)c2)cc1
3 = C/C=C/C(=O)Nc1ccc(Oc2cccc(OC)c2)cc1
Req: Hey, can you sort those compounds up there by Ki, smallest first? Field: ranking. Enter the labels in the order requested.
Resp: 2, 3, 1

1 = CCOC(=O)Nc1ccc(Nc2cccc(OC)c2)cc1
2 = CCCC(=O)Nc1ccc(Nc2cccc3c2CCO3)cc1
Req: Given 1 and 2 , report the one with the higher recorded Ki. Your answer should be the label attached to the chosen record.
Resp: 1
(1: 150 nM, 2: 39 nM)

A = CCC(=O)Nc1ccc(Oc2cccc(OC)c2)cc1
B = CCCC(=O)Nc1ccc(Oc2cccc(OC)c2)cc1
Req: Given A and B , report the one with the higher recorded Ki. Your answer should be the label attached to the chosen record.
Resp: A

a = CCCC(=O)Nc1cccc(Oc2cccc(OC)c2)c1
b = COc1cccc(N(C)c2ccc(NC(=O)C(C)C)cc2)c1
c = COc1cccc(N(C)c2ccc(NC(C)=O)cc2)c1
Req: Could you please sort these 3 entries by Ki from high to low? Field: ranking. Enter the labels in the order requested.
Resp: a, b, c
(a: 26.8 nM, b: 5.5 nM, c: 0.23 nM)

P = CCOC(=O)Nc1ccc(N(C)c2cccc(OC)c2)cc1
Q = COc1cccc(N(C)c2ccc(NC(=O)C3CC3)cc2)c1
Req: Given P and Q , report the one with the higher recorded Ki. Your answer should be the label attached to the chosen record.
Resp: P
